target: recombinant mouse AChE (Mus musculus, UniProt P21836); experiment: Mouse acetylcholinesterase inhibition, Ellman's method; conditions: recombinant mouse AChE; mean ± SEM; read-out: mAChE IC50
Sequence (P21836 32-614): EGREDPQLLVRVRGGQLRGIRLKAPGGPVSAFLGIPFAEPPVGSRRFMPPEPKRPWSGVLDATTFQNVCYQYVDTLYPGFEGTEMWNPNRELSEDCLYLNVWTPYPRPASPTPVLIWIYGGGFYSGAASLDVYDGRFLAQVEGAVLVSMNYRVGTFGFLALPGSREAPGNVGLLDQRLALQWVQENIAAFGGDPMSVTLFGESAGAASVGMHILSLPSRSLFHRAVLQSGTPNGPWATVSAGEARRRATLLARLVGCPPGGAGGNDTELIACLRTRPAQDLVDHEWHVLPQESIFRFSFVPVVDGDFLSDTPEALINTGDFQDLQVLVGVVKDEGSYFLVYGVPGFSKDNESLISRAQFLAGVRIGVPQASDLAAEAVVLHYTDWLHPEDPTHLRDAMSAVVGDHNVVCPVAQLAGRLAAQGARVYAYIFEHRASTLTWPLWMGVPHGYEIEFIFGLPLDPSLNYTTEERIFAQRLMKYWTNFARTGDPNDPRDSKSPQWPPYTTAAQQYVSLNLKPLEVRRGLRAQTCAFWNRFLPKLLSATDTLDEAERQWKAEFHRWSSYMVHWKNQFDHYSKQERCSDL
pIC50: −log10 of the molar value.
QUANTITY_MEASURED: pIC50

>>> measured("CC1=C[C@@H]2Cc3nc4cc(Cl)ccc4c(N)c3[C@H](C1)C2 [(−)-3, (−)-huprine Y, reference compound]")
9.21
>>> measured("O=C(Nc1ccc(OC(F)(F)F)cc1)NC1CCN(C(=O)CCCCNc2c3c(nc4cc(Cl)ccc24)CCCC3)CC1 [12c]")
8.39
>>> measured("O=C(Nc1ccc(OC(F)(F)F)cc1)NC1CCN(C(=O)CCNc2c3c(nc4cc(Cl)ccc24)CCCC3)CC1 [12a]")
7.45
>>> measured("CC1=C[C@H]2Cc3nc4cc(Cl)ccc4c(N)c3[C@@H](C1)C2 [(+)-3, (+)-huprine Y, reference compound]")
6.32
